Values compiled from the supplement of paper PMC9170038.

Each entry below carries its reported apparent KD of MS2 coat protein.
- Tested on: MS2 coat protein
- assay summary: apparent KD of MS2 coat protein; designed switch direction (-1 OFF switch, 1 ON switch): -1; higher = weaker reporter binding
- condition label: input ligand: none
endpoint: apparent KD of MS2 coat protein (nM)

- biosequence: "GGUGGGCUAGGAUAUGCUUUGGGCAAGCAUUCCUUCGAUAAACUUGAGGAUCACCCAAGUAGAAGGAGCUUGCC [salish99_ex2_r4_026] (Eterna round: R97, puzzle: Exclusion 2)"
  value unit: "nM"
  numeric value: 10.6
- biosequence: "GGGCUCGGAGGAUAUACAUGAGGAUCACCCAUGUAGGGCCCGGGUAUUCCCGGGCCCUGUAGAAGGCUGGGUCU [-39, -36.1 kcal, A 19%, 0-7] (Eterna round: R97, puzzle: Exclusion 3)"
  value unit: "nM"
  numeric value: 16.5
- biosequence: "CGUGGUAGGCAGGAUAUUUUAGACAAUUACUUGAAAGAAGGGCCUACAUGAGGAUCACCCAUGUGCUCUUCUUG [EX6 B.3] (Eterna round: R97, puzzle: Exclusion 6)"
  value unit: "nM"
  numeric value: 16.8
- biosequence: "GCUCGCUGAGGAUAUACUAAAACACGCUCUGGGAGGUCUUGACUUGAGGAUCACCCAAGUAGAAGGCAGUUAAA [Zaesleeran] (Eterna round: R97, puzzle: Exclusion 2)"
  value unit: "nM"
  numeric value: 450
- biosequence: "UUAAUUAAUUAAGGCUGAAGAUCACAUGAGGAUCACCCAUGUAAGGAUAUCAGCUCGUUUAGAGCUGAGAAGGUACAUGCAGCC [ExNG3/18-B2] (Eterna round: R96, puzzle: Exclusion NG 3)"
  value unit: "nM"
  numeric value: 370
- biosequence: "GGGCCCGGUGUGAGGAUAUGAGUUCGGAAAUGAGCUUAGAAGGCACAUGAGGAUCACCCAUGUAAGCCGGGCCC [-34.2, -32.1 kcal, A 26%, 1-0] (Eterna round: R97, puzzle: Brourd's mod of Exclusion 4)"
  value unit: "nM"
  numeric value: 35.6
- biosequence: "CAAACAAGCGAAAGAUCCCACAUGAGGAUCACCCAUGUGCUCGUCUUAUAAGGUACUGUGACGAAAGUCACGGUACC [Sensor 3, v1 - 91 v21] (Eterna round: R97, puzzle: Sensor, turn-off variant 1)"
  value unit: "nM"
  numeric value: 45.3
- biosequence: "ACAUGAGGAUCACCCAUGUGCACGUAAUGGCUCAUGUAGAGUCAGGAUAUGCGUGGCGAACUCGCGCAGAAGGGACAAGACUGG [Deportation 20 - Jieux - Exclusion NG 3] (Eterna round: R96, puzzle: Exclusion NG 3)"
  value unit: "nM"
  numeric value: 34.6
- biosequence: "GGAAAUCAUGUAGGAUAUGCGUGGCGAAGCUAUGCAGAAGGACAUGAGGAUCACCCAUGUGCUUCCGUCUGCGUACAGACGGAA [Mat - Exclusion NG 1 - Mod of JL - D20] (Eterna round: R96, puzzle: Exclusion NG 1)"
  value unit: "nM"
  numeric value: 186
- biosequence: "GAGGCAUGCUGAGGUCCACACAUGAGGAUCACCCAUGUAAUGACAAGCUUUUUCCUCGUCUUAUCGCUAUCGCGUUC [Dilaenla] (Eterna round: R96, puzzle: Sensor v3, turn-off variant 1)"
  value unit: "nM"
  numeric value: 16.3
- biosequence: "UGUUGUCGCGUAGGAUAUGCAUGAGGAUCACCCAUGCAAUUAGAGUUAACAUGAGGAUCACCCAUGUAGAAGGGCGGGACAACU [pwkr exNG2 2xF5 1xFMN.7] (Eterna round: R96, puzzle: Exclusion NG 2)"
  value unit: "nM"
  numeric value: 51.2
- biosequence: "GCCAGGUGAUUCGGCCAUGACAUGAGGAUCACCCAUGUAACAAUCUAGCAAGCAAACAAGGCCGUCGUGUAGGUAUU [Rigeusarla] (Eterna round: R96, puzzle: Sensor v2, turn-off variant)"
  value unit: "nM"
  numeric value: 76.7
- biosequence: "UAAUUGAUUAAUAGAUUAUACAUGAGGAUCACCCAUGUAGAUCCUACGUGCCAUUUAAGUAGCUCGUCUUAUUAUUA [Sensor-V1 #65] (Eterna round: R97, puzzle: Sensor, turn-off variant 1)"
  value unit: "nM"
  numeric value: 64.5
- biosequence: "AACCAGCGAGGAUAUCGUUCGGAUAACAUGAGGAUCACCCAUGUGAGUCGUGUUUACGAACGAGAAGGCGCGACUC [Cequus] (Eterna round: R97, puzzle: Exclusion 5)"
  value unit: "nM"
  numeric value: 798
- biosequence: "UUGGUGUCAGGAUAUGCACAGGUCGCACAAAUUGCAGCCUAGCAGAAGGGACAUGAGGAUCACCCAUGUACUCU [EX4 B.21] (Eterna round: R97, puzzle: Exclusion 4)"
  value unit: "nM"
  numeric value: 18.8
- biosequence: "GAAAACGCAGAGGAUAUUUCAGAUCAAAGCUGCAAAGAAGGCUGCACAUGAGGAUCACCCAUGUGGUCUUAAAA [Mod of Quesina 2 - Jieux - Exclusion 6] (Eterna round: R97, puzzle: Exclusion 6)"
  value unit: "nM"
  numeric value: 23.8
- biosequence: "CCGGCGUCAGGAUAUCGUAGCAGGACAUUCAGUCGCGGCUAUGAGAAGGGACAUGAGGAUCACCCAUGUCCUCA [Eternabot (Original) Solution 22] (Eterna round: R97, puzzle: Exclusion 4)"
  value unit: "nM"
  numeric value: 21.5
- biosequence: "CUUAGUUGGUAAGGAUAUCCUACAUUGUUCUGGCCCGGGCAUGCUACAUGAGGAUCACCCAUGUGGGAGAAGGUGCGUCAUCGC [Design 18] (Eterna round: R96, puzzle: Exclusion NG 2)"
  value unit: "nM"
  numeric value: 53.6
